# assayed.target: PCSK9 (Homo sapiens, UniProt Q8NBP7)
# Construct: biotin (biotinylated)
# Sequence (Q8NBP7 153-692): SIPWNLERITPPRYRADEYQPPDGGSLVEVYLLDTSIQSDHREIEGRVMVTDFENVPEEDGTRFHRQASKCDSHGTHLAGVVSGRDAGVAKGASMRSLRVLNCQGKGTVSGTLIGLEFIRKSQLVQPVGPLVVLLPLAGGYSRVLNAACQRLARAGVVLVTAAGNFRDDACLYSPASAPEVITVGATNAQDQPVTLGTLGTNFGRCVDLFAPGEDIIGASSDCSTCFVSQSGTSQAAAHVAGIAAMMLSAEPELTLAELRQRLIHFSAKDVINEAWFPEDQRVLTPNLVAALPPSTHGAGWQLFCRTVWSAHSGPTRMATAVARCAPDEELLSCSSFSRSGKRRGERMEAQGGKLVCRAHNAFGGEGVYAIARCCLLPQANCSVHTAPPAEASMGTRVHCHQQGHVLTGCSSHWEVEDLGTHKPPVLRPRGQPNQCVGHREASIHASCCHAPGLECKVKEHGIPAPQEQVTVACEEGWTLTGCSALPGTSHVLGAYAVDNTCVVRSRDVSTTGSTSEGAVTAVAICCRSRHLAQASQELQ
# assay.explanation: PCSK9 Alexa FRET Standard assay (displacement of AlexaFluor647-tagged cyclic peptide Reagent A)
# Assay type: binding
# assay.context: 0.5 nM PCSK9, 20 nM AF cyclic peptide Reagent A
pIC50: −log10 of the molar value. *1 amine or outer side, *2 acyl side, *3 side chain or, on linkers, in order; H or OH if unused. Where a SMILES comes first, the peptide text is derived from it. Bridges are numbered along the chain shown (N, C = ends). [ ]: non-standard residue; d: D form. 3Aminoazetidine3carboxyl = O=C(C1(N[*:1])CN([*:3])C1)[*:2]; Trp(7-aza) = N[C@@H](Cc1c[nH]c2ncccc12)C(=O)O; mXylylene = c1cc(C[*:1])cc(C[*:2])c1; aThr = C[C@H](O)[C@H](N)C(=O)O; Tle = CC(C)(C)[C@H](N)C(=O)O; αMeV = CC(C)[C@](C)(N)C(=O)O; Nva = CCC[C@H](N)C(=O)O; Aib = CC(C)(N)C(=O)O; Mpa = O=C(O)CCS
Each item that follows carries a reported pIC50.

# annotated cases, reported pIC50 shown
INSERT INTO results (compound, recorded_measurement) VALUES
  ('CCC[C@@H]1NC(=O)[C@H](Cc2c[nH]c3ncccc23)NC(=O)[C@H]([C@@H](C)O)NC(=O)[C@H](Cc2cnc[nH]2)NC(=O)[C@H](Cc2ccc(O)cc2)NC(=O)[C@H](C(C)(C)C)NC(=O)CCSCc2cccc(c2)CSC[C@@H](C(N)=O)NC(=O)[C@H]([C@@H](C)O)NC(=O)[C@H](Cc2ccc(O)cc2)NC(=O)[C@H](Cc2ccc(O)cc2)NC(=O)[C@H](CCC(=O)O)NC1=O [Compound 071] ([Mpa][Tle]YHT[Trp(7-aza)][Nva]EYYTC-NH2; linker 1-12 via mXylylene)', '7.00 to 9.00'),
  ('CC(=O)N[C@H]1CSCc2cccc(c2)CSC[C@H](C(N)=O)NC(=O)[C@H]([C@H](C)O)NC(=O)[C@](C)(C(C)C)NC(=O)[C@H](Cc2ccc(O)cc2)NC(=O)[C@H](C)NC(=O)C(C)(C)NC(=O)[C@H](Cc2c[nH]c3ncccc23)NC(=O)[C@H]([C@@H](C)O)NC(=O)[C@@H]2CCCN2C(=O)[C@H](Cc2ccccc2)NC(=O)[C@H](C(C)(C)C)NC1=O [Compound 040] (Ac-C[Tle]FPT[Trp(7-aza)][Aib]AY[αMeV][aThr][dC]-NH2; linker 1-12 via mXylylene)', '7.00 to 9.00'),
  ('CC(=O)N[C@H]1CSCc2cccc(c2)CSC[C@H](C(N)=O)NC(=O)[C@H]([C@@H](C)O)NC(=O)[C@](C)(C(C)C)NC(=O)[C@H](Cc2ccc(O)cc2)NC(=O)[C@H](C)NC(=O)C2(CNC2)NC(=O)[C@H](Cc2c[nH]c3ncccc23)NC(=O)[C@H]([C@@H](C)O)NC(=O)[C@@H]2CCCN2C(=O)[C@H](Cc2ccc(O)cc2)NC(=O)[C@H](C(C)(C)C)NC1=O [Compound 038] (Ac-C[Tle]YPT[Trp(7-aza)][3Aminoazetidine3carboxyl]AY[αMeV]T[dC]-NH2; linker 1-12 via mXylylene)', '7.00 to 9.00');

# evaluate next
Prompt line: Name the recorded pIC50 for CC(=O)N[C@H]1CSCc2cccc(c2)CSC[C@H](C(N)=O)NC(=O)[C@H]([C@@H](C)O)NC(=O)[C@](C)(C(C)C)NC(=O)[C@H](Cc2ccc(O)cc2)NC(=O)[C@H](C)NC(=O)C(C)(C)NC(=O)[C@H](Cc2c[nH]c3ncccc23)NC(=O)[C@H]([C@H](C)O)NC(=O)[C@@H]2CCCN2C(=O)[C@H](Cc2ccc(O)cc2)NC(=O)[C@H](C(C)(C)C)NC1=O [Compound 029] (Ac-C[Tle]YP[aThr][Trp(7-aza)][Aib]AY[αMeV]T[dC]-NH2; linker 1-12 via mXylylene) .
Response line: 6.00 to 7.00

---

# assayed.target: PCSK9 (Homo sapiens)
# Construct: biotin (biotinylated)
# assay.explanation: PCSK9 Alexa FRET Standard assay (displacement of AlexaFluor647-tagged cyclic peptide Reagent A)
# Format: binding
# assay.context: 0.5 nM PCSK9, 20 nM AF cyclic peptide Reagent A
*1 amine or outer side, *2 acyl side, *3 side chain or, on linkers, in order; H or OH if unused. Where a SMILES comes first, the peptide text is derived from it. Bridges are numbered along the chain shown (N, C = ends). [ ]: non-standard residue; d: D form. X3 = N=C(N)NCc1ccc(C[C@H](N[*:1])C(=O)[*:2])cc1; Trp(7-aza) = N[C@@H](Cc1c[nH]c2ncccc12)C(=O)O; Phe(4-CH2NH2) = NCc1ccc(C[C@H](N)C(=O)O)cc1; mXylylene = c1cc(C[*:1])cc(C[*:2])c1; Chg = N[C@H](C(=O)O)C1CCCCC1; Tle = CC(C)(C)[C@H](N)C(=O)O; Nva = CCC[C@H](N)C(=O)O; Mpa = O=C(O)CCS
measured.quantity: IC50

Recorded IC50, per entry:
INSERT INTO results (compound, recorded_measurement) VALUES
  ('CCC[C@@H]1NC(=O)[C@H](Cc2c[nH]c3ncccc23)NC(=O)[C@H]([C@@H](C)O)NC(=O)[C@@H]2CCCCNC(=O)CC[C@H](NC1=O)C(=O)N[C@@H](Cc1ccc(O)cc1)C(=O)N[C@@H](C1CCCCC1)C(=O)N[C@@H]([C@@H](C)O)C(=O)N[C@@H](C(N)=O)CSCc1cccc(c1)CSCCC(=O)N[C@@H](C(C)(C)C)C(=O)N[C@@H](Cc1ccc(O)cc1)C(=O)N2 [Compound 107] ([Mpa][Tle]YKT[Trp(7-aza)][Nva]EY[Chg]T[dC]-NH2; linker 1-12 via mXylylene; lactam 4-8)', '1 to 100 nM'),
  ('CCC[C@@H]1NC(=O)[C@H](Cc2c[nH]c3ncccc23)NC(=O)[C@H]([C@@H](C)O)NC(=O)[C@H](Cc2cnc[nH]2)NC(=O)[C@H](Cc2ccc(O)cc2)NC(=O)[C@H](Cc2ccc(CN)cc2)NC(=O)CCSCc2cccc(c2)CSC[C@@H](C(N)=O)NC(=O)[C@H]([C@@H](C)O)NC(=O)[C@H](CCC)NC(=O)[C@H](Cc2ccc(O)cc2)NC(=O)[C@H](CCC(=O)O)NC1=O [Compound 086] ([Mpa][Phe(4-CH2NH2)]YHT[Trp(7-aza)][Nva]EY[Nva]TC-NH2; linker 1-12 via mXylylene)', '100 to 1000 nM');

Next compound, please.
Prompt line: I am curious: what IC50 value has been reported for CCC[C@@H]1NC(=O)[C@H](Cc2c[nH]c3ncccc23)NC(=O)[C@H]([C@@H](C)O)NC(=O)[C@H](Cc2cnc[nH]2)NC(=O)[C@H](Cc2ccc(O)cc2)NC(=O)[C@H](C(C)(C)C)NC(=O)[C@@H](NC(=O)[C@H](Cc2ccc(CNC(=N)N)cc2)NC(C)=O)CSCc2cccc(c2)CSC[C@@H](C(N)=O)NC(=O)[C@H]([C@@H](C)O)NC(=O)[C@H](CCC)NC(=O)[C@H](Cc2ccc(O)cc2)NC(=O)[C@H](CCC(=O)O)NC1=O [Compound 098] (Ac-[X3]C[Tle]YHT[Trp(7-aza)][Nva]EY[Nva]TC-NH2; linker 2-13 via mXylylene) ?
Response line: 100 to 1000 nM

---

# assayed.target: PCSK9 (Homo sapiens, UniProt Q8NBP7)
# Construct: biotin (biotinylated)
# assay.explanation: PCSK9 Alexa FRET Plus assay (displacement of AlexaFluor647-tagged cyclic peptide Reagent B)
# Type: binding
# assay.context: 0.5 nM PCSK9, 960 nM AF cyclic peptide Reagent B
pIC50: −log10 of the molar value. *1 amine or outer side, *2 acyl side, *3 side chain or, on linkers, in order; H or OH if unused. Where a SMILES comes first, the peptide text is derived from it. Bridges are numbered along the chain shown (N, C = ends). [ ]: non-standard residue; d: D form. Trp(5-F) = N[C@@H](Cc1c[nH]c2ccc(F)cc12)C(=O)O; Trp(7-aza) = N[C@@H](Cc1c[nH]c2ncccc12)C(=O)O; mXylylene = c1cc(C[*:1])cc(C[*:2])c1; aThr = C[C@H](O)[C@H](N)C(=O)O; Tle = CC(C)(C)[C@H](N)C(=O)O; αMeV = CC(C)[C@](C)(N)C(=O)O; Aib = CC(C)(N)C(=O)O
measured.quantity: pIC50

Prompt line: Which pIC50 reading was recorded for the compound CC(=O)N[C@H]1CSCc2cccc(c2)CSC[C@H](C(N)=O)NC(=O)[C@H]([C@H](C)O)NC(=O)[C@](C)(C(C)C)NC(=O)[C@H](Cc2ccc(O)cc2)NC(=O)[C@H](C)NC(=O)C(C)(C)NC(=O)[C@H](Cc2c[nH]c3ncccc23)NC(=O)[C@H]([C@@H](C)O)NC(=O)[C@@H]2CCCN2C(=O)[C@H](Cc2c[nH]c3ccc(F)cc23)NC(=O)[C@H](C(C)(C)C)NC1=O [Compound 042] (Ac-C[Tle][Trp(5-F)]PT[Trp(7-aza)][Aib]AY[αMeV][aThr][dC]-NH2; linker 1-12 via mXylylene) ?
Response line: 7.00 to 9.00
